Taken from ChEMBL document CHEMBL1201862.

test system: SK-OV-3; test: NCI tumour cell line growth inhibition, 48 h
Activity calls are given as the source filed them. No stated cut-off is given here; in the data, active = GI50 up to about 1.1 µM and inactive = higher.
Reported GI50 values are given for each entry in this list.

# compound, GI50
data = [
    ("Cc1nc(-c2nc(C)c(C(=O)NN(C)C)s2)sc1C(=O)NN(C)C", "> 100 µM (inactive)"),
    ("CC1=C(C(N)=O)C(c2ccncc2)C(C#N)=C2SCC(=O)N12 (stereo unspecified)", "> 100 µM (inactive)"),
    ("Nc1nc(N)c2ncn(CCCC(c3ccccc3)P(=O)(O)O)c2n1 (stereo unspecified)", "> 100 µM (inactive)"),
    ("Cc1cc(C)nc(NS(=O)(=O)c2ccc(NNc3c4ccccc4nc4c(C(=O)Nc5ccc(S(=O)(=O)Nc6ncccn6)cc5)cccc34)cc2)n1", "31.5 µM (inactive)"),
    ("Nc1nc(N)c2c(n1)NC(=O)c1c(c3ccccc3n1Cc1ccc(Cl)cc1)C2", "18.8 µM (inactive)"),
    ("COC(=O)[C@H](CC(C)C)NC(=O)[C@H](Cc1ccccc1)N1CC2C=CC1C2 (stereo partly specified)", "> 100 µM (inactive)"),
]

----------
This section presents compounds with their documented GI50 values.
system: OVCAR-4; assay: NCI tumour cell line growth inhibition, 48 h
Activity calls are given as the source filed them. No stated cut-off is given here; in the data, active = GI50 up to about 1.1 µM and inactive = higher.

# compound, test_system, GI50
rows = [
    ("CC1(C)CCCCCC(O)C(O)CCC(C)(C)C1=O (stereo not given)", "OVCAR-4", "> 100 µM (inactive)"),
    ("O=C(/C=C/c1cccs1)c1ccc(Cl)s1", "OVCAR-4", "48.5 µM (inactive)"),
    ("COc1ccc(C2C(Cl)C(=O)N2NC(=O)c2ccccc2O)cc1 (stereo not given)", "OVCAR-4", "> 100 µM (inactive)"),
    ("C[n+]1c(Cl)cn2c3nc4ccccc4nc3c([O-])c(C#N)c21", "OVCAR-4", "> 59 µM (inactive)"),
    ("c1ccc(N/N=N/c2ccc(-c3nc4ccccc4o3)cc2)nc1", "OVCAR-4", "36 µM (inactive)"),
    ("Cc1ccc2c(c1)OC1Nc3ccccc3C1=C2O (stereo not given)", "OVCAR-4", "40.4 µM (inactive)"),
    ("N#Cc1c(-c2ccccc2)c(/C=N/c2ccc(Cl)cc2)c(=O)n2c1[nH]c1ccccc12", "OVCAR-4", "> 100 µM (inactive)"),
    ("C=CCNC1=C(C(=O)OCC)C(=O)CO1", "OVCAR-4", "> 100 µM (inactive)"),
    ("O=[N+]([O-])c1nccn1COCCBr", "OVCAR-4", "> 100 µM (inactive)"),
    ("CC(c1ccccc1)n1c2ccccc2c2c(N)ncnc21 (stereo not given)", "OVCAR-4", "13.6 µM (inactive)"),
]

----------
test system: M14; assay: NCI tumour cell line growth inhibition, 48 h
Activity calls are given as the source filed them. Rule as the data show it: active = GI50 up to about 1.1 µM and inactive = higher. Where a SMILES comes first, the peptide text is derived from it. [ ]: non-standard residue; d: D form. The star is where a group is joined. ξ: configuration not given here. ξD = NC(CC(=O)O)C(=O)O; Boc = CC(C)(C)OC(=O)*; Aib = CC(C)(N)C(=O)O; OBn = c1ccc(CO*)cc1
Classes used: T for active, F for inactive

# compound, category
rows = [
    ("O=C(CC1(O)C(=O)Nc2c(Cl)cc(Cl)cc21)c1ccccc1 (centres undefined)", "F"),
    ("COc1ccc(/N=N/C(=O)NC(CC(C)C)C(=O)NC(Cc2ccccc2)C(=O)O)cc1 (centres undefined)", "T"),
    ("C=CCn1c(N)c(C#N)c(C#N)c1-c1ccccc1", "F"),
    ("O=C(c1ccncc1)C1C(=O)c2ccccc2C1C1(O)c2ccccc2CC1C(O)c1ccncc1 (centres undefined)", "F"),
    ("CCOC(=O)/C(=C\\c1ccc(C#N)cc1)C(C)=O", "F"),
    ("CC(=O)OCc1cc(OC(C)=O)c2cc3c(OC(C)=O)cccc3c(OC(C)=O)c2c1", "F"),
    ("Cc1c(N=C(S)Nc2ccc(Cl)cc2)c(=O)n(-c2ccccc2)n1C", "F"),
    ("Cc1ccc(C(=O)/C=C(O)/C(O)=C/C(=O)c2ccc(C)cc2C)c(C)c1", "F"),
    ("CC(C)C(NCc1c(O)ccc2c(-c3ccccc3)cc(=O)oc12)C(=O)O (centres undefined)", "F"),
    ("Cc1cccc2c1C(=O)OC2(C)c1cccc2ccccc12 (centres undefined)", "F"),
    ("CCOC(=O)C1=C(C)C2C=C(c3cccs3)CC(c3ccc(Cl)cc3)=C2OC1=O (centres undefined)", "F"),
    ("CC1(C)CCCCCC(O)C(O)CCC(C)(C)C1=O (centres undefined)", "F"),
    ("C=C1CC2(CC(c3ccccc3OC)OC(c3ccccc3OC)C2)OC1=O (centres undefined)", "F"),
    ("CCOC(=O)N/N=C/C1=NN(C(=O)OCC)[S+]([O-])C1C (centres undefined)", "F"),
    ("COC(=O)c1c(O)ccc2c1c1c(n2Cc2cccc(C)c2)C(=O)c2ccccc2C1=O", "F"),
    ("CCC1c2[nH]c3ccccc3c2C[C@H]2C(=O)NC(CCC(=O)OC(C)(C)C)C(=O)N12 (some centres undefined)", "F"),
    ("CC1(C)CC(=O)c2c(oc3cc(O)c(O)cc23)C1", "F"),
    ("CSc1cc(-c2cccs2)sc1-c1cc(SC)c(-c2sc(-c3sc(-c4cccs4)cc3SC)cc2SC)s1", "F"),
    ("c1sc(NC2=NCCO2)c2c1CCCC2", "F"),
    ("CC1(C)CCC(C)(C)c2c1ccc(O)c2Cc1c(O)ccc2c1C(C)(C)CCC2(C)C", "F"),
    ("CC(C)(C)OC(=O)NC(CC(=O)OCc1ccccc1)C(=O)NC(C)(C)C(N)=O (centres undefined) (Boc-[ξD](OBn)-[Aib]-NH2)", "F"),
    ("c1ccc2[nH]c(-c3nc4ccccc4o3)nc2c1", "F"),
    ("CC[C@@H]1C[C@H]2CC3c4[nH]c5ccc(O)cc5c4CCN(C2)C31", "F"),
    ("O=[N+]([O-])c1nccn1COCCBr", "F"),
    ("C=C1c2ccccc2C(=O)c2c1c1c(C(=O)OC)c(O)ccc1n2Cc1ccccc1", "T"),
    ("CCc1ccc2oc(=O)ccc2c1", "F"),
    ("CCOC(=O)NC(Nc1cccc(C(F)(F)F)c1)(C(F)(F)F)C(F)(F)F", "F"),
    ("OC1(c2ccccc2)C2CCN(CC2)C1CN1CCOCC1 (centres undefined)", "F"),
    ("COc1ccc2nc(NC(=O)C(=O)C(C(=O)c3ccccc3-c3ccccc3)C3OC(=O)c4ccccc43)sc2c1 (centres undefined)", "F"),
]

----------
# maps each entry to its GI50
system: SK-MEL-5; experiment: NCI tumour cell line growth inhibition, 48 h
Activity calls are given as the source filed them. No stated cut-off is given here; in the data, active = GI50 up to about 1.1 µM and inactive = higher.

# compound, test_system, GI50
data = [
    ("COC1=CC(=Nc2c(Cl)cc(Cl)cc2OC(=O)c2ccc([N+](=O)[O-])cc2)C=C(OC)C1=O", "SK-MEL-5", "7.05 µM (inactive)"),
    ("Cc1ccc(C(=O)/C=C(O)/C(O)=C/C(=O)c2ccc(C)cc2C)c(C)c1", "SK-MEL-5", "1.75 µM (inactive)"),
    ("O=C1c2ccccc2C(=O)N1C(=S)c1ccccc1", "SK-MEL-5", "> 100 µM (inactive)"),
    ("O=C(NCCO)c1ccc(Cl)cc1", "SK-MEL-5", "> 100 µM (inactive)"),
    ("COc1ccc(C2Oc3c(cc(O)c(OC)c3C)[C@@H]2C)cc1OC (stereo partly specified)", "SK-MEL-5", "31.6 µM (inactive)"),
    ("CC1=C(c2cc(C(=O)Nc3cc(C)ccc3C)nc(N)n2)Sc2ccccc2N1", "SK-MEL-5", "> 100 µM (inactive)"),
    ("CCOC(=O)N/N=C/C1=NN(C(=O)OCC)[S+]([O-])C1C (stereo unspecified)", "SK-MEL-5", "> 100 µM (inactive)"),
    ("S=c1sc2c(Cl)nc(Cl)nc2n1-c1ccccc1", "SK-MEL-5", "64.4 µM (inactive)"),
    ("CCN(CC)C(=S)SS(=O)(=O)c1ccc([N+](=O)[O-])cc1", "SK-MEL-5", "2.77 µM (inactive)"),
    ("N#Cc1c(-c2ccc(Cl)cc2)c(C#N)c(=O)n(NS(=O)(=O)c2ccccc2)c1S", "SK-MEL-5", "14.2 µM (inactive)"),
    ("Cc1nc(-c2cccnc2)sc1C(=O)CC(=O)C(=O)Nc1cccc(NC(=O)C(=O)CC(=O)c2sc(-c3cccnc3)nc2C)n1", "SK-MEL-5", "> 100 µM (inactive)"),
    ("O=C(CC1(O)C(=O)Nc2c(Cl)cc(Cl)cc21)c1ccccc1 (stereo unspecified)", "SK-MEL-5", "60.3 µM (inactive)"),
    ("O=P(Nc1ccccc1)(Oc1ccccc1)N1CCN(c2ccccc2)CC1 (stereo unspecified)", "SK-MEL-5", "19.4 µM (inactive)"),
    ("CN(Nc1cc(=O)[nH]c(=O)[nH]1)c1ccccc1", "SK-MEL-5", "> 100 µM (inactive)"),
    ("O=[N+]([O-])c1cc(-c2nc(-c3ccccc3)c(-c3ccccc3)[nH]2)c(O)c([N+](=O)[O-])c1", "SK-MEL-5", "17.7 µM (inactive)"),
    ("O=C(O)c1ccccc1/N=N\\c1c(O)c(S(=O)(=O)O)cc2cc(S(=O)(=O)O)ccc12", "SK-MEL-5", "4.72 µM (inactive)"),
]
